# test_target: T1, PUF4 RNA-binding domain (Saccharomyces cerevisiae, UniProt P25339 537-888)
# T1 sequence: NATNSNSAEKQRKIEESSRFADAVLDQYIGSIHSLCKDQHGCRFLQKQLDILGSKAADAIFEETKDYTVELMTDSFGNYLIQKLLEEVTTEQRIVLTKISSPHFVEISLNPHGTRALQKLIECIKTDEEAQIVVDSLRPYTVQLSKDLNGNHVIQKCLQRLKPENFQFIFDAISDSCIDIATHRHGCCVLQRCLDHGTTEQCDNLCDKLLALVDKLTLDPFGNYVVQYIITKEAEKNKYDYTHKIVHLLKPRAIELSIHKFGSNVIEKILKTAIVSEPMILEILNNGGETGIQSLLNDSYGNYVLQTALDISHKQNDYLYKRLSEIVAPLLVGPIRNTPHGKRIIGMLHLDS
# measurement_notes: Mg; RNA-MaP; 20 mM Na-HEPES pH 7.4, 30 mM KOAc, 0.75 mM MgCl2, 0.1% Tween-20, 5% glycerol, 0.1 mg/mL BSA, 2 mM DTT; 25 C; 0.0125-409.6 nM protein
# details: tags: N-His6-TEV cleaved; C-SNAP kept, Cy3B-labelled; label: tethered on chip by stalled RNA polymerase
Rule: measured Kd below 300 nM gets label 1; anything equal to or greater than 300 nM gets label 0.

>>> group("Id_iii_S2_P5E.7_K5.3_C5.3_[C-2A]_H5.3_A5.1_F5.1_T5.2 (ssRNA) RNA: UUUGAUUAAUAUGAUAUCGUUCUUUCUUAUACACUUAUUAUAUUCUUUCUCGAUAUCAUAUUAAUCUUU")
"label 0"
>>> group("UCUCUUUCAUGUAUUUUAGUUCUCUU (ssRNA) [Id_iii_S1_P4E.8_K4.4_C4.3_[T-1A]_H4.1_A4.2_F4.1_T4.2]")
"label 1"
>>> group("Ic_S4_P4E.1_K4.1_C4.1_H4.1_A4.1_[T5C]_[A6T]_[T7C]_F4.1_[T8G]_[A9T]_T4.1 (ssRNA) RNA: UUUGACAACUGAUCGUUCUUUCUUGUACUCGUUUCUUUCUCGAUCAGUUGUCUUU")
"label 1"
>>> group("Ic_S4_P4E.1_K4.1_C4.1_H4.1_A4.1_[A6T]_[T7C]_F4.1_[T8A]_[A9T]_T4.1 (ssRNA) RNA: UUUGACAACUGAUCGUUCUUUCUUGUAUUCAUUUCUUUCUCGAUCAGUUGUCUUU")
"label 1"
>>> group("Id_ii_S2_P5E.3_K5.2_C5.2_[C-2T]_H5.2_A5.1_F5.1_T5.2_[T11C]_[A12C] (ssRNA) RNA: UUUGAUUAAUAUGAUAUCGUUCUUUCUUUUAUAUUAUUACCUUCUUUCUCGAUAUCAUAUUAAUCUUU")
"label 1"
>>> group("Id_ii_S2_P3E.3_K3.2_C3.2_[C-2G]_[T-1C]_H3.2_A3.1_F3.1_T3.2_[T9C]_[A10C] (ssRNA) RNA: UUUGAUUAAUAUGAUAUCGUUCUUUCUGCUAUAUAUACCUUCUUUCUCGAUAUCAUAUUAAUCUUU")
"label 0"
>>> group("UCUCUUUGCAUUAUAAUCUCUU (ssRNA) [Ib_S1_P5E.1_K5.1_C5.1_H5.1_[T3C]_A5.1_F5.1_[T9A]_T5.1]")
"label 0"
>>> group("Ic_S4_P5E.1_K5.1_C5.1_H5.1_A5.1_[T6G]_[A7G]_F5.1_[T8C]_[A10C]_T5.1 (ssRNA) RNA: UUUGACAACUGAUCGUUCUUUCUUGUAUGGCUCUUCUUUCUCGAUCAGUUGUCUUU")
"label 0"

Given the entry UCUCUUUGUAUAUGAUCUCUU (ssRNA) [Ic_S1_P4E.1_K4.1_C4.1_H4.1_A4.1_F4.1_[T8G]_T4.1] , would its reported Kd be below 300 nM? label 1

Does the reported Kd of UCUCUUUGUAACGCUCUCUU (ssRNA) [Ic_S1_P3E.1_K3.1_C3.1_H3.1_A3.1_[T5A]_[A6C]_F3.1_[T7G]_[A8C]_T3.1] stay below 300 nM? label 0

Regarding Id_ii_S2_P4E.2_K4.1_C4.2_[C-2T]_[T-1C]_H4.1_A4.1_F4.1_T4.2_[G10A]_[T11C] (ssRNA) RNA: UUUGAUUAAUAUGAUAUCGUUCUUUCUUCUGUAUAUUAACUUCUUUCUCGAUAUCAUAUUAAUCUUU , kindly confirm whether its Kd is beneath 300 nM. label 1

Find out if reported Kd for UCUCUUUGUCUUUUUAUCUCUU (ssRNA) [Ib_S1_P5E.1_K5.1_C5.1_H5.1_[A4C]_A5.1_[A7T]_F5.1_T5.1] is less than 300 nM label 1

Take the binder UCUCUUUGUAUUUGCGUCUCUU (ssRNA) [Ic_S1_P5E.1_K5.1_C5.1_H5.1_A5.1_[A7T]_F5.1_[T8G]_[T9C]_[A10G]_T5.1] and say whether its Kd is less than 300 nM. label 0

hey, is Kd for UCUCUUCAUAUAUAUACAUCUCUU (ssRNA) [Id_ii_S1_P3E.3_K3.2_C3.2_[T-1A]_H3.2_A3.1_F3.1_T3.2_[T9C]] lower than 300 nM or not? label 0
